Values were extracted from BindingDB's records for doi:10.1124/jpet.103.049254.

Target: Hrh3 protein (Rattus norvegicus)
Sequence (Q5PPG3 whole entry): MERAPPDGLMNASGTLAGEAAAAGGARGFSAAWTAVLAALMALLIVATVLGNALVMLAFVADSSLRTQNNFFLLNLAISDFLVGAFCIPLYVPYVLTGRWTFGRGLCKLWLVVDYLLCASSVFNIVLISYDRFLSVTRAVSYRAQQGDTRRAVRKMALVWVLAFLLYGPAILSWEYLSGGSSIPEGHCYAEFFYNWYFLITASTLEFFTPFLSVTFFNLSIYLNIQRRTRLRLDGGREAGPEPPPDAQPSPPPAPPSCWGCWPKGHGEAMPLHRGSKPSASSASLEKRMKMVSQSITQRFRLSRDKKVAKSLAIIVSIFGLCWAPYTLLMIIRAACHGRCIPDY
Recorded Endpoint: Ki (nM)
Numbers only here, please. The scale is nM.

Field: Ki (Hrh3 protein (Rattus norvegicus)). Entry: `O=C(NCc1ccc(Cc2c[nH]cn2)cc1)Nc1cc(Cl)cc(Cl)c1`
1.9

----------
Biological target: Histamine H2 receptor (Cavia porcellus, UniProt P47747)
Sequence (P47747 whole entry): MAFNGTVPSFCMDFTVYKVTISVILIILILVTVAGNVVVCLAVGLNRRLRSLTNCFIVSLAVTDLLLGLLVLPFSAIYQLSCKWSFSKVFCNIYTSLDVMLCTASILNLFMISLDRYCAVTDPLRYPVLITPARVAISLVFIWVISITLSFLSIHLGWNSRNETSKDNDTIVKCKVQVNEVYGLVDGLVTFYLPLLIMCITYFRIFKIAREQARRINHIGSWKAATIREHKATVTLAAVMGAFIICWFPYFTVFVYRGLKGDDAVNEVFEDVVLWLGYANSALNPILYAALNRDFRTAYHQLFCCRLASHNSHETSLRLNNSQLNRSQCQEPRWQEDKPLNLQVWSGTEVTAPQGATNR
Recorded Endpoint: pKi
Formally, pKi is defined as -log10 of the concentration c, with c in mol/L.

Field: pKi (Histamine H2 receptor (Cavia porcellus, UniProt P47747)). Entry: `O=C(NCc1ccc(Cc2c[nH]cn2)cc1)Nc1cc(Cl)cc(Cl)c1`
6.00

----------
Target: Nischarin (Rattus norvegicus)
Sequence (Q4G017 whole entry): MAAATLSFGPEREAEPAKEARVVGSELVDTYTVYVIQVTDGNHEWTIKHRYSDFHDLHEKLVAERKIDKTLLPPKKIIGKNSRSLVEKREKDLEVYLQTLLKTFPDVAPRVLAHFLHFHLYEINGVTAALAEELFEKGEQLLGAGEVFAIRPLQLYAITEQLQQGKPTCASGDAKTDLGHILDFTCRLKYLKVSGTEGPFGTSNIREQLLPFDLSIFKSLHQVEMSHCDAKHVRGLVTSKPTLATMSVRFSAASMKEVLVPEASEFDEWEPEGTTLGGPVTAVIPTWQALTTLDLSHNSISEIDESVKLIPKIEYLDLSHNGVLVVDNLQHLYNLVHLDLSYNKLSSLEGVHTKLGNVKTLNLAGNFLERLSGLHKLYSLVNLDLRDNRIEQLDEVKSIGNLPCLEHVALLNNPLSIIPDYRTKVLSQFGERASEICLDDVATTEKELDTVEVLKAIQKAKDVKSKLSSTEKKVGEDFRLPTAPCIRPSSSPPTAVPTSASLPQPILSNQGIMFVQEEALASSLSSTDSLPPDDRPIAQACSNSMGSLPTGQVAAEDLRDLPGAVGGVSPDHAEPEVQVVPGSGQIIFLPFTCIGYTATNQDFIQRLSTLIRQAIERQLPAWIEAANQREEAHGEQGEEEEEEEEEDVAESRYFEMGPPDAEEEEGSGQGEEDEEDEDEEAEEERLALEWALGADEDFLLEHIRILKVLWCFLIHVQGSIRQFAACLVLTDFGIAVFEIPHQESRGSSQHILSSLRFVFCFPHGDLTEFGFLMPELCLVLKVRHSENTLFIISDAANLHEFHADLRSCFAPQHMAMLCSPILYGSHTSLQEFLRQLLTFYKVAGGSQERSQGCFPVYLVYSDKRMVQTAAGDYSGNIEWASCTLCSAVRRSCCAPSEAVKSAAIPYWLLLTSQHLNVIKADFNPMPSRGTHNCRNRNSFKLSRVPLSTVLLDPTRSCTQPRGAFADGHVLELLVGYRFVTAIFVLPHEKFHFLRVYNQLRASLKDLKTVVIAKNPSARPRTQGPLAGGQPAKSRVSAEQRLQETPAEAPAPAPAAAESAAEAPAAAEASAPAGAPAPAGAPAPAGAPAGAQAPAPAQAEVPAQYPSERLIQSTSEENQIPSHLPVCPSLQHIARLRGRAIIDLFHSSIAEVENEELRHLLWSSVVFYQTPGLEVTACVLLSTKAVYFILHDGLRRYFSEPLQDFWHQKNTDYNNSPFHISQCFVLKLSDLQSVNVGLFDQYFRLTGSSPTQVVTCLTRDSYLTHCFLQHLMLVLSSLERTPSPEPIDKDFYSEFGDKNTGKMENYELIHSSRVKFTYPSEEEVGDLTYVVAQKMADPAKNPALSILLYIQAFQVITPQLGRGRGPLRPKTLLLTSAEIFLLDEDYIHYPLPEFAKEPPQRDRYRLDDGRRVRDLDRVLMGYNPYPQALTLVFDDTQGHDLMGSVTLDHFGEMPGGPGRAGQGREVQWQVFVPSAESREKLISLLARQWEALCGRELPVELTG
Recorded Endpoint: Ki (µM)
Numbers only here, please. The scale is µM.

Field: Ki (Nischarin (Rattus norvegicus)). Entry: `O=C(NCc1ccc(Cc2c[nH]cn2)cc1)Nc1cc(Cl)cc(Cl)c1`
0.155
